Listed here: items and their measured IC50.
assay-info: Inhibition of beta-lactamase TEM-1

C=CC[C@@H]1C(=O)N2[C@@H](C(=O)OC(c3ccccc3)c3ccccc3)C(C)(C)S(=O)(=O)[C@H]12: 35 µM
Cc1onc(-c2ccccc2)c1C(=O)N[C@@H]1C(=O)N2[C@@H](C(=O)O)C(C)(C)S(=O)(=O)[C@H]12: > 50 µM
CC1(C)[C@H](C(=O)O)N2C(=O)[C@@H](CC(O)O)[C@H]2S1(=O)=O: > 50 µM
CC(C)(C)C(=O)NC[C@@H]1C(=O)N2[C@@H](C(=O)O)C(C)(C)S(=O)(=O)[C@H]12: > 50 µM
CC1(C)[C@H](C(=O)O)N2C(=O)[C@@H](CN)[C@H]2S1(=O)=O: 0.45 µM

Tell me the measured IC50 of `COc1cccc(OC)c1C(=O)N[C@@H]1C(=O)N2[C@@H](C(=O)O)C(C)(C)S(=O)(=O)[C@H]12` , please. > 50 µM

Can you handle `CC1(C)[C@H](C(=O)O)N2C(=O)[C@@H](CNC(=O)Cc3ccccc3)[C@H]2S1(=O)=O` next? > 50 µM

Same lookup for `CC1(C)[C@H](C(=O)O)N2C(=O)[C@@H](CNS(=O)(=O)C(F)(F)F)[C@H]2S1(=O)=O` , please. 6.1 µM

###

Here, each record is paired with measured IC50 data.
assay-info: Inhibition of beta-lactamase PDC-3

CC1(C)[C@H](C(=O)O)N2C(=O)[C@@H](CC(=O)NO)[C@H]2S1(=O)=O: > 50 µM

I'd like to know its IC50. The molecule in question is `CC1(C)[C@H](C(=O)O)N2C(=O)[C@@H]([C@@H](O)CN)[C@H]2S1(=O)=O` 1.2 µM

Consider next the molecule `C=CC[C@@H]1C(=O)N2[C@@H](C(=O)OC(c3ccccc3)c3ccccc3)C(C)(C)S(=O)(=O)[C@H]12` in the same way. 1.2 µM

Please give the result for `CC1(C)[C@H](C(=O)O)N2C(=O)[C@@H](N)[C@H]2S1(=O)=O` too. > 50 µM

Now consider `CC1(C)[C@H](C(=O)O)N2C(=O)[C@@H](CN)[C@H]2S1(=O)=O` and answer again. > 50 µM

Next record, please: CC1(C)[C@H](C(=O)O)N2C(=O)C[C@H]2S1(=O)=O [SULBACTAM] 4.3 µM

Lookup `CC1(C)[C@H](C(=O)O)N2C(=O)[C@@H](CC(O)O)[C@H]2S1(=O)=O` > 50 µM

Same again, this time with `CC1(C)[C@H](C(=O)O)N2C(=O)[C@@H](NC(=O)Cc3ccccc3)[C@H]2S1(=O)=O` > 50 µM

###

assay-info: Inhibition of beta-lactamase TEM-1
outcome-measure: IC50

CC1(C)[C@H](C(=O)O)N2C(=O)[C@@H](NC(=O)Cc3ccccc3)[C@H]2S1(=O)=O: > 50 µM
CC1(C)[C@H](C(=O)O)N2C(=O)[C@@H]([C@@H](O)C(=O)N3CCCC3)[C@H]2S1(=O)=O: 0.18 µM
CC1(C)[C@H](C(=O)O)N2C(=O)[C@@H]([C@@H](O)CN)[C@H]2S1(=O)=O: 1.2 µM
CC1(C)[C@H](C(=O)O)N2C(=O)[C@@H](CCO)[C@H]2S1(=O)=O: > 50 µM
CC1(C)[C@H](C(=O)O)N2C(=O)[C@@H](N)[C@H]2S1(=O)=O: 8.4 µM
C=CCOC(=O)NC[C@@H]1C(=O)N2[C@@H](C(=O)O)C(C)(C)S(=O)(=O)[C@H]12: > 50 µM

# query: IC50 of entry `CC1(C)[C@H](C(=O)O)N2C(=O)[C@@H](CCCO)[C@H]2S1(=O)=O` > 50 µM

Quick one: `CC1(C)[C@H](C(=O)O)N2C(=O)[C@@H](CC(=O)O)[C@H]2S1(=O)=O` > 50 µM

// provenance: ChEMBL document CHEMBL1641562
